# Test system: HEK-293T
# method: Multiplex assay against HEK293T;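 on Population Tubulin-Different-Phenotype (%): share of the cells with healthy nuclei that show this phenotype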
# Type: toxicity, cell-based
# experimental-parameters: human, 12 h, 10 µM, compound concentration 10 uM, replicate 1
Each item that follows carries a reported Population Tubulin-Different-Phenotype (%).
measure: Population Tubulin-Different-Phenotype (%)

{"molecule": "CCn1c(=O)c(-c2ccc(-c3cncs3)cc2Cl)cc2cnc(Nc3ccc(N4CCN(C)CC4)cc3)nc21", "recorded-value": "93%"}
{"molecule": "Cl.Oc1ccc2c3c1O[C@H]1c4[nH]c5c(c4C[C@@]4(O)[C@@H](C2)N(CC2CC2)CC[C@]314)C[C@@]1(O)[C@H]2Cc3ccc(O)c4c3[C@@]1(CCN2CC1CC1)[C@H]5O4", "recorded-value": "33%"}
{"molecule": "CCn1cc(-c2ccnc3[nH]c(-c4cccc(CN(C)C)c4)cc23)c(-c2ccc(NC(=O)N(C)C)cc2)n1 [GSK-1070916]", "recorded-value": "91%"}

----------
# Tested on: HEK-293T
# method: Multiplex assay against HEK293T
# Type: toxicity, cell-based
# experimental-parameters: human, 48 h, 1 µM, compound concentration 1 uM, replicate 1
measure: Population Membrane Permeable-Phenotype (%)

{"molecule": "Cc1ccc(C(=O)Nc2cccc(C(F)(F)F)c2)cc1Nc1nc(-c2cccnc2)nc2c1cnn2C", "assayed-system": "HEK-293T", "recorded-value": 4}
{"molecule": "Cc1cc(C)c(S(=O)(=O)N(Cc2ccc(-c3cccc(S(C)(=O)=O)c3)cc2)Cc2ccc(C(F)(F)F)o2)c(C)c1", "assayed-system": "HEK-293T", "recorded-value": 4}
{"molecule": "CCOC(=O)c1c(C)[nH]c2ccc3c(c12)CN1CCc2cc(OC)ccc2C1O3 (centres undefined)", "assayed-system": "HEK-293T", "recorded-value": 1}
{"molecule": "CCCS(=O)(=O)c1nc(NC2CC2)cc(-c2ccc3c(ccn3C3CC(C)(C)NC(C)(C)C3)c2)n1", "assayed-system": "HEK-293T", "recorded-value": 7}

----------
# Tested on: U2OS
# method: Multiplex assay against U2OS
# Assay type: toxicity, cell-based
# experimental-parameters: human, 48 h, 1 µM, compound concentration 1 uM, replicate 1
Entries and their measured Population Mitochondria Different-Phenotype (%) follow.
measure: Population Mitochondria Different-Phenotype (%)

{"compound": "CCOC(=O)c1c(C)[nH]c2ccc3c(c12)CN1CCc2cc(OC)ccc2C1O3 (stereo not given)", "recorded-value": 22}
{"compound": "S=C(NCCCc1c[nH]cn1)NCCCN(Cc1ccc(Cl)c(Cl)c1)c1ccc(Br)cn1", "recorded-value": 11}
{"compound": "CCn1c(=O)c(-c2ccc(-c3cncs3)cc2Cl)cc2cnc(Nc3ccc(N4CCN(C)CC4)cc3)nc21", "recorded-value": 9}
{"compound": "Cl.Oc1ccc2c3c1O[C@H]1c4[nH]c5c(c4C[C@@]4(O)[C@@H](C2)N(CC2CC2)CC[C@]314)C[C@@]1(O)[C@H]2Cc3ccc(O)c4c3[C@@]1(CCN2CC1CC1)[C@H]5O4", "recorded-value": 11}
{"compound": "O=C(Cc1ccc(-c2ccc(OCCN3CCOCC3)cc2)cn1)NCc1ccccc1", "recorded-value": 39}

----------
# Tested on: U2OS
# method: Multiplex assay against U2OS
# Assay type: toxicity, cell-based
# experimental-parameters: human, 48 h, 1 µM, compound concentration 1 uM, replicate 2
Note to self: Total Cell Count under 80 means yes, ties and anything higher get no.

{"smiles-str": "Cc1cn(-c2cc(NC(=O)c3ccc(C)c(Nc4nccc(-c5cccnc5)n4)c3)cc(C(F)(F)F)c2)cn1", "cat": "yes"}
{"smiles-str": "CCn1c(=O)c(-c2ccc(-c3cncs3)cc2Cl)cc2cnc(Nc3ccc(N4CCN(C)CC4)cc3)nc21", "cat": "no"}
{"smiles-str": "S=C(NCCCc1c[nH]cn1)NCCCN(Cc1ccc(Cl)c(Cl)c1)c1ccc(Br)cn1", "cat": "yes"}
{"smiles-str": "CCCn1c(=O)c2[nH]c(-c3cnn(Cc4cccc(C(F)(F)F)c4)c3)nc2n(CC)c1=O", "cat": "no"}
{"smiles-str": "O=C(Cc1ccc(-c2ccc(OCCN3CCOCC3)cc2)cn1)NCc1ccccc1", "cat": "no"}

----------
# Tested on: U2OS
# method: Multiplex assay against U2OS
# Assay type: toxicity, cell-based
# experimental-parameters: human, 12 h, 1 µM, compound concentration 1 uM, replicate 2

{"smiles-str": "CCN1CCN(Cc2ccc(Nc3ncc(F)c(-c4cc(F)c5nc(C)n(C(C)C)c5c4)n3)nc2)CC1.CS(=O)(=O)O", "assayed-system": "U2OS", "value-unit": "%", "Population Fragmented Nuclei (%)": 17}
{"smiles-str": "Cc1ccc2nc(NCCN)c3ncc(C)n3c2c1.O=C(O)C(F)(F)F.O=C(O)C(F)(F)F", "assayed-system": "U2OS", "value-unit": "%", "Population Fragmented Nuclei (%)": 8}
{"smiles-str": "CCNc1cc(N[C@H]2CC[C@H](O)CC2)nc(Nc2ccc3c(ccn3Cc3ccccc3)c2)n1", "assayed-system": "U2OS", "value-unit": "%", "Population Fragmented Nuclei (%)": 11}
{"smiles-str": "COc1ccc(S(=O)(=O)N(CCO)c2ccccc2CN(C)C/C=C/c2ccc(Cl)cc2)cc1.O=P(O)(O)O", "assayed-system": "U2OS", "value-unit": "%", "Population Fragmented Nuclei (%)": 9}

----------
# Tested on: Fibroblast
# method: Multiplex assay against human fibroblast
# Assay type: toxicity, cell-based
# experimental-parameters: 48 h, 10 µM, compound concentration 10 uM, replicate 2
Grouping key: Population Normal (%). Bins: low range: < 70%; mid range: ≥ 70% and < 80%; high range: ≥ 80%

{"compound": "CCOc1cc(C(=O)N2CCC(N3CCN(C)CC3)CC2)ccc1Nc1ncc2c(n1)N(C1CCCC1)c1ccccc1C(=O)N2C", "cat": "low range"}
{"compound": "Cl.O=c1c2cccn2c2ccccc2n1CCCN1CCC(c2ccc(Cl)cc2)CC1", "cat": "low range"}
{"compound": "Cl.O=C(c1ccc(Nc2nccc(-c3cc4ccccc4s3)n2)cc1)N1CCC(N2CCCC2)CC1", "cat": "low range"}
{"compound": "O=C(Nc1ccc(-c2ccnc(Nc3ccc(N4CCOCC4)cc3)n2)cc1)[C@@H]1CCCN1", "cat": "high range"}
{"compound": "CN1C2CCC1CC(OC(c1ccc(F)cc1)c1ccc(F)cc1)C2.Cl (stereo unspecified)", "cat": "high range"}
{"compound": "O=C(Nc1ccc(Cl)cc1)Nc1cccc(-c2cccc(N3CCCC3)n2)c1", "cat": "low range"}
{"compound": "CCOC(=O)c1c(C)[nH]c2ccc3c(c12)CN1CCc2cc(OC)ccc2C1O3 (stereo unspecified)", "cat": "mid range"}
{"compound": "CCc1cccc(CC)c1NC(=O)c1nn(C)c2c1CCc1cnc(Nc3ccc(C(=O)NC4CCN(C)CC4)cc3OC(F)(F)F)nc1-2", "cat": "high range"}
{"compound": "CCOc1cc2ncc(C#N)c(Nc3ccc(OCc4ccccn4)c(Cl)c3)c2cc1NC(=O)/C=C/CN(C)C", "cat": "low range"}
{"compound": "CN1CCC(=C2c3ccccc3CC(=O)c3sccc32)CC1.O=C(O)/C=C/C(=O)O [KETOTIFEN FUMARATE]", "cat": "mid range"}
{"compound": "CCN1CCN(Cc2ccc(Nc3ncc(F)c(-c4cc(F)c5nc(C)n(C(C)C)c5c4)n3)nc2)CC1.CS(=O)(=O)O", "cat": "low range"}
{"compound": "C=C1/C(=C\\C=C2/CCC[C@]3(C)[C@@H]([C@H](C)/C=C/[C@H](C)C(C)C)CC[C@@H]23)C[C@@H](O)C[C@@H]1O", "cat": "high range"}
{"compound": "Cc1cn(-c2cc(NC(=O)c3ccc(C)c(Nc4nccc(-c5cccnc5)n4)c3)cc(C(F)(F)F)c2)cn1", "cat": "mid range"}
{"compound": "Cc1cc(C)c(S(=O)(=O)N(Cc2ccc(-c3cccc(S(C)(=O)=O)c3)cc2)Cc2ccc(C(F)(F)F)o2)c(C)c1", "cat": "high range"}
{"compound": "O=C(Nc1ccc(-n2nc(-c3cccnc3)cc2C(F)(F)F)cn1)c1ccc(-c2ccccc2)c(F)c1", "cat": "high range"}
{"compound": "Cl.Oc1ccc2c3c1O[C@H]1c4[nH]c5c(c4C[C@@]4(O)[C@@H](C2)N(CC2CC2)CC[C@]314)C[C@@]1(O)[C@H]2Cc3ccc(O)c4c3[C@@]1(CCN2CC1CC1)[C@H]5O4", "cat": "high range"}

----------
# Test system: HEK-293T
# method: Multiplex assay against HEK293T;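 on Population Tubulin-Different-Phenotype (%): share of the cells with healthy nuclei that show this phenotype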
# Assay type: toxicity, cell-based
# experimental-parameters: human, 48 h, 10 µM, compound concentration 10 uM, replicate 1
I would appreciate it if you labelled entries y when Population Tubulin-Different-Phenotype (%) is 30% or higher, otherwise n.

{"compound": "CNc1cc(Oc2cc(C(=O)Nc3cc(N4CCN(C)CC4)cc(C(F)(F)F)c3)ccc2C)ncn1", "cat": "y"}
{"compound": "O=C(Nc1ccc(Cl)cc1)Nc1cccc(-c2cccc(N3CCCC3)n2)c1", "cat": "y"}
{"compound": "CCOc1cc(C(=O)N2CCC(N3CCN(C)CC3)CC2)ccc1Nc1ncc2c(n1)N(C1CCCC1)c1ccccc1C(=O)N2C", "cat": "y"}
{"compound": "CN(C)C(=O)C(CCN1CCC(O)(c2ccc(Cl)cc2)CC1)(c1ccccc1)c1ccccc1.Cl [LOPERAMIDE HYDROCHLORIDE]", "cat": "n"}
{"compound": "CCN1CCN(Cc2ccc(Nc3ncc(F)c(-c4cc(F)c5nc(C)n(C(C)C)c5c4)n3)nc2)CC1.CS(=O)(=O)O", "cat": "n"}
{"compound": "CCOc1cc2ncc(C#N)c(Nc3ccc(OCc4ccccn4)c(Cl)c3)c2cc1NC(=O)/C=C/CN(C)C", "cat": "n"}
{"compound": "O=C(Nc1ccc(-c2ccnc(Nc3ccc(N4CCOCC4)cc3)n2)cc1)[C@@H]1CCCN1", "cat": "y"}
{"compound": "O=C1N/C(=N/c2ccccc2F)S/C1=C\\c1ccc(C(=O)O)cc1", "cat": "n"}
{"compound": "CN1CCN(C(=O)C(C)(C)c2ccc(C(=O)Nc3cn4cc(-c5ccncc5)ccc4n3)cc2)CC1", "cat": "y"}
{"compound": "C=C1/C(=C\\C=C2/CCC[C@]3(C)[C@@H]([C@H](C)/C=C/[C@H](C)C(C)C)CC[C@@H]23)C[C@@H](O)C[C@@H]1O", "cat": "y"}
{"compound": "Cl.O=C(c1ccc(Nc2nccc(-c3cc4ccccc4s3)n2)cc1)N1CCC(N2CCCC2)CC1", "cat": "y"}
{"compound": "Cl.O=c1c2cccn2c2ccccc2n1CCCN1CCC(c2ccc(Cl)cc2)CC1", "cat": "y"}
{"compound": "CCCn1c(=O)c2[nH]c(-c3cnn(Cc4cccc(C(F)(F)F)c4)c3)nc2n(CC)c1=O", "cat": "y"}
{"compound": "CCCS(=O)(=O)c1nc(NC2CC2)cc(-c2ccc3c(ccn3C3CC(C)(C)NC(C)(C)C3)c2)n1", "cat": "n"}
{"compound": "O=C(Cc1ccc(-c2ccc(OCCN3CCOCC3)cc2)cn1)NCc1ccccc1", "cat": "n"}
{"compound": "Cc1cn(-c2cc(NC(=O)c3ccc(C)c(Nc4nccc(-c5cccnc5)n4)c3)cc(C(F)(F)F)c2)cn1", "cat": "y"}
{"compound": "Cc1ccc(C(=O)Nc2cccc(C(F)(F)F)c2)cc1Nc1nc(-c2cccnc2)nc2c1cnn2C", "cat": "y"}
